Tested on: tetA promoter (PtetA)-lacZ reporter in E. coli KM3
Format: cell-based
test.context: Table 6, reverse repressor hits; ethametsulfuron, same plate assay format as Table 4
endpoint.label: relative β-galactosidase activity, inducer Es

molecule	recorded.measurement
L1-34: library L1 reverse repressor hit (SEQ ID NO: 1206-1213) (protein, rSuR L1-34) MGSRLDKSKVINSALELLNEVGIEGLTTRKLAQKLGVEQPTLYWHVKNKRALLDALAIEMADRHNTHFCPLEGESWQDFLRNAARSMRCALLSHRDGAKVYLGTARTEKQYETTENVLAFLCQQGFSLENALYAVRAVPRFTLGCVLLDQERQVAKEERETPTTDSMPPLLRQARELTDHQGAEPAFLFGLELIICGLEKQLKCESGS	1.33
L1-25: library L1 reverse repressor hit (SEQ ID NO: 1206-1213) (protein, rSuR L1-25) MGSRLDKSKVINSALELLNEVGIEGLTTRKLAQKLGVEQPTLYWHVKNKRALLDALAIEMLDRHATHFCPLEGESWQDFLRNTAKSMRCALLSHRDGAKVLLGTATTEKQYETLENLLAFLYQQGFSLENALYAWQAVWRFTLGCVLIDQETQVAKEERETPTTDSMPPLLRQAVELKDHQGAEPAFLFGLELIICGLEKQLKCETGS	0.13
